System: T47D
ASSAY TEXT: MTT assay, T47D breast cancer cells
Format: cell-based
CONDITION INFO: 72 h
OBSERVABLE: IC50 (µM)
Record the value in µM, omitting the unit from your answer.

State its IC50 for this compound: N.N.[Cl][Pt][Cl] [Cisplatin, reference compound] 2.6

---

Test system: HSC3
ASSAY TEXT: MTT assay, HSC3 head and neck cancer cells
Format: cell-based
CONDITION INFO: Homo sapiens, HSC-3; HSC3, 72 h
OBSERVABLE: IC50 (µM)
Record the value in µM, omitting the unit from your answer.

chem_smiles=CCOC(=O)c1c(NC(=O)CN2CCCCC2)sc2c1CCN(C(=O)OCC)C2 observable=IC50 value_reported=14.5

Now for a further compound.
State its IC50 for this compound: CCOC(=O)c1c(NC(=O)CN2CCSCC2)sc2c1CCN(C(=O)OCC)C2 10.8
